Reported Stability Index values for the following binders.
Biological target: T1, recombinant human Tau monomer, 2N4R isoform (amino acids 2-441) (human, UniProt P10636-8 2-441)
T1 construct: range 2-441; N-terminal His-tag removed with TEV protease; also called monomeric Tau
T1 sequence (P10636 other isoform, or with tags, fused parts or gaps limits assumed): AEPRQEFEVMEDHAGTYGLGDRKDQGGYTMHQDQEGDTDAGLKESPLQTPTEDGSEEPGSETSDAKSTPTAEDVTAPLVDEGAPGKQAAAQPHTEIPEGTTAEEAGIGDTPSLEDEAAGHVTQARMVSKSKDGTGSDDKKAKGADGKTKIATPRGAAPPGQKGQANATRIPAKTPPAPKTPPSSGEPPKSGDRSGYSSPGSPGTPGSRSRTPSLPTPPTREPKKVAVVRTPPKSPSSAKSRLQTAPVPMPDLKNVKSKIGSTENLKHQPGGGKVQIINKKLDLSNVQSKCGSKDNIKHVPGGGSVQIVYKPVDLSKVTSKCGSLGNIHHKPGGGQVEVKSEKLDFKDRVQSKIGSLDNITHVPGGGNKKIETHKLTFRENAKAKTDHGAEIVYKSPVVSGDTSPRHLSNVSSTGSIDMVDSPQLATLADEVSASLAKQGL
Assay: SPR; Normalized Rmax post-stress (2 weeks 40 C) / pre-stress
The response must be a number in % with no trailing unit.

Look over these answered cases.
{"binder": "hu37D3.v29.1 (antibody, V domains shown) VH: EVQLVESGGGLVQPGGSLRLSCAASGLIFRSYGMSWVRQAPGKGLEWVATINSGGTYTYYPDSVKGRFTISRDNSKNTLYLQMNSLRAEDTAVYYCANSYSGAMDYWGQGTLVTVSS VL: EDVLTQTPLSLPVTPGQPASISCRSSQSIVHSNGDTYFEWYLQKPGQSPQLLIYKVSNRFSGVPDRFSGSGSGTDFTLKISRVEAEDVGVYYCFQGSLVPWTFGQGTKVEIK", "Stability Index (%)": 70}
{"binder": "hu37D3-H9.v31.1 (antibody, V domains shown) VH: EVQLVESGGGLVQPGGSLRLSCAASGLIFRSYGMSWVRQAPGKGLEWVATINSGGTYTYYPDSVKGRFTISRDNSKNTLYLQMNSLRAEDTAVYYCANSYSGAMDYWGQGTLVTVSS VL: DDVLTQTPLSLPVTPGQPASISCRSSQSIVHSNAGTYFEWYLQKPGQSPQLLIYKVSNRFSGVPDRFSGSGSGTDFTLKISRVEAEDVGVYYCFQGSLVPWTFGQGTKVEIK", "Stability Index (%)": 72}
{"binder": "hu37D3.v29.7 (antibody, V domains shown) VH: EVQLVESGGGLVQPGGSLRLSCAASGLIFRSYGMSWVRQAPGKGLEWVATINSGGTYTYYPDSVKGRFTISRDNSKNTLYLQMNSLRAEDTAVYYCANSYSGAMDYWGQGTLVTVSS VL: EDVLTQTPLSLPVTPGQPASISCRSSQSIVHSNGLTYFEWYLQKPGQSPQLLIYKVSNRFSGVPDRFSGSGSGTDFTLKISRVEAEDVGVYYCFQGSLVPWTFGQGTKVEIK", "Stability Index (%)": 90}

Query :: Quick check: Stability Index of hu37D3.v28.A22 (antibody, V domains shown) VH: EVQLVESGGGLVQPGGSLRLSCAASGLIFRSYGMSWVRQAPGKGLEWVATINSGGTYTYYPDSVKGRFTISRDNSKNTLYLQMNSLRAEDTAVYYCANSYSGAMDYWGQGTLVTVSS VL: DVVLTQTPLSLPVTPGQPASISCRSSQSIVHSNGNTYLEWYLQKPGQSPQLLIYKVSNRFSGVPDRFSGSGSGTDFTLKISRVEAEDVGVYYCFQGSHVPWTFGQGTKVEIK ?
Result :: 70

Query :: Given the entry hu37D3.v28.B7 (antibody, V domains shown) VH: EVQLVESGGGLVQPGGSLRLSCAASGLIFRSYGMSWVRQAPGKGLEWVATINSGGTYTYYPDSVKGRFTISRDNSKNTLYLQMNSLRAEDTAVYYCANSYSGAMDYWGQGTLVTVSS VL: DDVLTQTPLSLPVTPGQPASISCRSSQSIVHSDGNTKFEWYLQKPGQSPQLLIYKVSNRFSGVPDRFSGSGSGTDFTLKISRVEAEDVGVYYCFQGSLVPWTFGQGTKVEIK , report its measured Stability Index.
Result :: 607

Query :: Given the entry hu37D3.v28.A20 (antibody, V domains shown) VH: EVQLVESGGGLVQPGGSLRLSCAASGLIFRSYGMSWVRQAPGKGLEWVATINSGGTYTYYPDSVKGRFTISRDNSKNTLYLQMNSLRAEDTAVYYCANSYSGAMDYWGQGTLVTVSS VL: DVVLTQTPLSLPVTPGQPASISCRSSQSIVHSNGNTYLEWYLQKPGQSPQLLIYKVSNRFSGVPDRFSGSGSGTDFTLKISRVEAEDVGVYYCFQGSLVPWTFGQGTKVEIK , report its measured Stability Index.
Result :: 93

Query :: Requested read-out: Stability Index. Entry: hu37D3-H9.v31.8 (antibody, V domains shown) VH: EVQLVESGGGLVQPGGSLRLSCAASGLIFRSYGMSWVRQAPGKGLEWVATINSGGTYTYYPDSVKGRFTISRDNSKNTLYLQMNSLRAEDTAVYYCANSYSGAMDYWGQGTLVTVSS VL: DDVLTQTPLSLPVTPGQPASISCRSSQSIVHSNANVYFEWYLQKPGQSPQLLIYKVSNRFSGVPDRFSGSGSGTDFTLKISRVEAEDVGVYYCFQGSLVPWTFGQGTKVEIK
Result :: 78

Query :: Reported Stability Index for hu37D3-H9.v5.11 (antibody, V domains shown) VH: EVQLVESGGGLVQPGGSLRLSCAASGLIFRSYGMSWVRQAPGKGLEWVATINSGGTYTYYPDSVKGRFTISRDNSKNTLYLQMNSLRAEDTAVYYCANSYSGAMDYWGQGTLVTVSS VL: EDVLTQTPLSLPVTPGQPASISCRSSQSIVHSNGSTYFEWYLQKPGQSPQLLIYKVSNRFSGVPDRFSGSGSGTDFTLKISRVEAEDVGVYYCFQGSLVPWTFGQGTKVEIK : what is it?
Result :: 71

Query :: Name the reported Stability Index value associated with the binder hu37D3-H9.v5.4 (antibody, V domains shown) VH: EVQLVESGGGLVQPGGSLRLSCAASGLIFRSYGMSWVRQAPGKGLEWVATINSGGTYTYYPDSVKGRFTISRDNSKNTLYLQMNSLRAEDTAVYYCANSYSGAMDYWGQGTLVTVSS VL: EDVLTQTPLSLPVTPGQPASISCRSSQSIVHSQGNTYFEWYLQKPGQSPQLLIYKVSNRFSGVPDRFSGSGSGTDFTLKISRVEAEDVGVYYCFQGSLVPWTFGQGTKVEIK
Result :: 78

Query :: Which Stability Index reading was recorded for the binder hu37D3-H9.v5 (antibody, V domains shown, human IgG1 or IgG4, kappa) VH: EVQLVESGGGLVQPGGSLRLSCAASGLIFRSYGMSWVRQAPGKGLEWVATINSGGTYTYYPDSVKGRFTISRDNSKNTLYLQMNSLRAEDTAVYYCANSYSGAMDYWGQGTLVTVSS VL: EDVLTQTPLSLPVTPGQPASISCRSSQSIVHSNGNTYFEWYLQKPGQSPQLLIYKVSNRFSGVPDRFSGSGSGTDFTLKISRVEAEDVGVYYCFQGSLVPWTFGQGTKVEIK ?
Result :: 73
